Where do these numbers come from? They come from patent US8802597B2.

Tested on: giant foxtail (Setaria faberii)
Experiment: Test B pre/postemergence
Format: in vivo
Details: Preemergence, 500 g ai/ha; scale 0 to 100 (0 no effect, 100 complete control)
Entries and their measured Plant response rating, Foxtail, Giant follow.

[
  {
    "Structure Smiles": "CCOC(=O)c1nc(C2CC2)nc(NOC(C)(C)C)c1Br",
    "Assay System": "giant foxtail (Setaria faberii)",
    "Plant response rating, Foxtail, Giant": 0
  },
  {
    "Structure Smiles": "CC(=O)NN=Cc1nc(C2CC2)nc(N)c1Br",
    "Assay System": "giant foxtail (Setaria faberii)",
    "Plant response rating, Foxtail, Giant": 0
  },
  {
    "Structure Smiles": "CCOC(=O)c1nc(C2CC2)nc(N2CCCC2)c1Br",
    "Assay System": "giant foxtail (Setaria faberii)",
    "Plant response rating, Foxtail, Giant": 0
  },
  {
    "Structure Smiles": "CN(C)N=Cc1nc(C2CC2)nc(N)c1Br",
    "Assay System": "giant foxtail (Setaria faberii)",
    "Plant response rating, Foxtail, Giant": 40
  },
  {
    "Structure Smiles": "CCOC(=O)c1nc(C2CC2)nc(NOCc2ccccc2)c1Br",
    "Assay System": "giant foxtail (Setaria faberii)",
    "Plant response rating, Foxtail, Giant": 0
  }
]

* * *

Test system: goosegrass (Eleusine indica)
Experiment: Test C pre/postemergence
Type: in vivo
Conditions: Eleusine indica, post-emergence, Postemergence, 62 g ai/ha; scale 0 to 100 (0 no effect, 100 complete control); read-out: Goosegrass plant response rating
Reported Property: pest or weed control at 62 g/ha (%)

[
  {
    "Molecule": "CCOC(=O)c1nc(C2CC2)nc(N)c1F [Compound 30]",
    "Quantitative Result": 0
  },
  {
    "Molecule": "CCOC(=O)c1nc(-c2ccc(Cl)cc2)nc(N)c1Cl [Compound 64]",
    "Quantitative Result": 35
  },
  {
    "Molecule": "COC(=O)c1nc(C2CC2)nc(N)c1F [Compound 25]",
    "Quantitative Result": 0
  },
  {
    "Molecule": "CNc1nc(C2CC2)nc(C(=O)OC)c1Br [Compound 5]",
    "Quantitative Result": 0
  },
  {
    "Molecule": "CCOC(=O)c1nc(C2CC2)nc(N)c1Cl [Compound 4]",
    "Quantitative Result": 0
  },
  {
    "Molecule": "COC(=O)c1nc(C2CC2)nc(N)c1I [Compound 7]",
    "Quantitative Result": 0
  }
]

* * *

System: velvetleaf (Abutilon theophrasti)
Assay: Test A pre/postemergence
Assay type: in vivo
Conditions: Preemergence, 500 g ai/ha; 0 to 100 scale where 0 is no effect and 100 is complete control; approximately ten days
Cut-off 40 on Plant response rating, Velvetleaf: below means 1, at or above means -1.

[
  {
    "Compound": "COC(=O)c1nc(-c2ccc([S+](C)[O-])cc2)nc(N)c1Cl (centres unmarked) [Compound 123]",
    "Cat": 1
  },
  {
    "Compound": "COC(=O)c1nc(-c2ccc(Cl)cc2)nc(N)c1Br [Compound 83]",
    "Cat": 1
  },
  {
    "Compound": "Nc1nc(-c2ccc(Br)cc2)nc(C(=O)O)c1Br [Compound 136]",
    "Cat": -1
  },
  {
    "Compound": "COC(=O)c1nc(-c2ccc(I)cc2)nc(N)c1Br [Compound 128]",
    "Cat": 1
  },
  {
    "Compound": "CCCCOCCOC(=O)c1nc(C2CC2)nc(N)c1Cl [Compound 139]",
    "Cat": -1
  },
  {
    "Compound": "COCCOCCOC(=O)c1nc(C2CC2)nc(N)c1Cl [Compound 141]",
    "Cat": -1
  },
  {
    "Compound": "Nc1nc(-c2ccc(F)cc2)nc(C(=O)O)c1Cl [Compound 90]",
    "Cat": -1
  },
  {
    "Compound": "Cc1ccc(-c2nc(N)c(Cl)c(C(=O)O)n2)cc1F [Compound 87]",
    "Cat": -1
  },
  {
    "Compound": "CCCCOC(=O)c1nc(C2CC2)nc(N)c1Cl [Compound 76]",
    "Cat": -1
  },
  {
    "Compound": "CCOC(=O)c1nc(-c2cc(Br)cc(OC)c2)nc(N)c1Cl [Compound 101]",
    "Cat": 1
  },
  {
    "Compound": "CC(C)c1nc(N)c(Cl)c(C(=O)[O-])n1.[Na+] [Compound 109]",
    "Cat": -1
  },
  {
    "Compound": "CCCOC(=O)c1nc(-c2ccc(Cl)cc2)nc(N)c1Cl [Compound 105]",
    "Cat": 1
  },
  {
    "Compound": "Nc1nc(C2CC2)nc(OCC(=O)[O-])c1Cl.[Na+] [Compound 116]",
    "Cat": 1
  },
  {
    "Compound": "Nc1nc(-c2ccc(F)cc2)nc(C(=O)O)c1Br [Compound 93]",
    "Cat": -1
  },
  {
    "Compound": "CC(C)OC(=O)c1nc(-c2ccc(Cl)cc2)nc(N)c1Cl [Compound 102]",
    "Cat": 1
  },
  {
    "Compound": "CCOC(=O)c1nc(-c2ccc(OC(F)(F)F)cc2)nc(N)c1Cl [Compound 103]",
    "Cat": 1
  },
  {
    "Compound": "Nc1nc(-c2ccc(Cl)cc2)nc(C(=O)O)c1Br [Compound 88]",
    "Cat": -1
  },
  {
    "Compound": "CS(=O)(=O)NC(=O)c1nc(C2CC2)nc(N)c1Cl [Compound 132]",
    "Cat": 1
  },
  {
    "Compound": "COC(=O)COc1nc(-c2ccc(Cl)cc2)nc(N)c1Cl [Compound 119]",
    "Cat": 1
  },
  {
    "Compound": "CCOC(=O)c1nc(-c2ccc(Cl)cc2)nc(N)c1I [Compound 137]",
    "Cat": 1
  },
  {
    "Compound": "Nc1nc(C2CC2)nc(C(=O)OCC2CO2)c1Cl (centres unmarked) [Compound 140]",
    "Cat": -1
  },
  {
    "Compound": "Nc1nc(-c2ccc(Cl)cc2)nc(C(=O)OCc2ccccc2)c1Cl [Compound 118]",
    "Cat": 1
  },
  {
    "Compound": "Nc1nc(-c2ccc(Cl)cc2)nc(C(=O)[O-])c1Cl.[Na+] [Compound 117]",
    "Cat": -1
  },
  {
    "Compound": "CCOC(=O)c1nc(-c2ccc(Cl)cc2Cl)nc(N)c1Cl [Compound 72]",
    "Cat": -1
  },
  {
    "Compound": "CCOC(=O)c1nc(-c2ccc(C(F)(F)F)cc2)nc(N)c1Br [Compound 60]",
    "Cat": 1
  },
  {
    "Compound": "CCOC(=O)c1nc(-c2ccc(Cl)c(Cl)c2)nc(N)c1Br [Compound 66]",
    "Cat": 1
  }
]

* * *

Tested on: morningglory (Ipomoea spp.)
Assay: Test A pre/postemergence
Assay type: in vivo
Details: Ipomoea, post-emergence, 240 h, Postemergence, 125 g ai/ha; 0 to 100 scale (0 no effect, 100 complete control); read-out: Plant response rating, Morningglory

[
  {
    "Compound": "Nc1nc(-c2ccc(Cl)cc2)nc(C(=O)O)c1Cl [Compound 65]",
    "Assay System": "morningglory (Ipomoea spp.)",
    "pest or weed control at 125 g/ha / %": 75
  },
  {
    "Compound": "CCOC(=O)c1nc(-c2ccc3ccccc3c2)nc(N)c1Cl [Compound 127]",
    "Assay System": "morningglory (Ipomoea spp.)",
    "pest or weed control at 125 g/ha / %": 0
  },
  {
    "Compound": "CNc1nc(C2CC2)nc(C(=O)OC)c1Cl [Compound 79]",
    "Assay System": "morningglory (Ipomoea spp.)",
    "pest or weed control at 125 g/ha / %": 90
  },
  {
    "Compound": "CCOC(=O)c1nc(-c2ccc(Cl)cc2)nc(N)c1Cl [Compound 64]",
    "Assay System": "morningglory (Ipomoea spp.)",
    "pest or weed control at 125 g/ha / %": 80
  },
  {
    "Compound": "COC(=O)c1nc(C2CC2)nc(N)c1OC [Compound 59]",
    "Assay System": "morningglory (Ipomoea spp.)",
    "pest or weed control at 125 g/ha / %": 90
  },
  {
    "Compound": "CNC(=O)c1nc(C2CC2)nc(N)c1Cl [Compound 81]",
    "Assay System": "morningglory (Ipomoea spp.)",
    "pest or weed control at 125 g/ha / %": 50
  }
]
